These data points were gathered from the supplement of paper PMC9428881.

test-description: background-corrected fluorescence of 3'-dye-labeled ssDNA relative to brightest sequence (3'-GCGCG) (fraction); higher = brighter dye fluorescence (less quenching)
run-conditions: dye: Cy3 (3' terminal)
Returns one of label 1 or label 0; label 1 when background-corrected fluorescence is >= 0.5.

Answered examples (8):
TTTTTTGATCATGATGCGCATTTTTTTTTTTTTTTCGCAT [TACGC] :: label 1
TTTTTTGATCAGCAGCATCATTTTTTTTTTTTTTTCGTTG [GTTGC] :: label 1
TTTTTGCATCATGCTGATCATTTTTTTTTTTTTTTTGACG [GCAGT] :: label 1
TTTTTTCATGATGCTCATGCTTTTTTTTTTTTTTTGCAGA [AGACG] :: label 1
TTTTTGCATCATCATGCTGCTTTTTTTTTTTTTTTTGGAA [AAGGT] :: label 1
TTTTTTCATGATCATCATCATTTTTTTTTTTTTTTGCGGG [GGGCG] :: label 1
TTTTTGCATGATGATGATGATTTTTTTTTTTTTTTTCCCC [CCCCT] :: label 0
TTTTTTCATCATGCTGCTGATTTTTTTTTTTTTTTGGAAC [CAAGG] :: label 0

Task item: Confirm if background-corrected fluorescence reported for the sequence TTTTTTGCGCATCATGAGCATTTTTTTTTTTTTTTATGCT [TCGTA] is 0.5 or above.
Reply: label 1

Task item: Confirm if background-corrected fluorescence reported for the sequence TTTTTTGCGCATCATGATCATTTTTTTTTTTTTTTATGCG [GCGTA] is 0.5 or above.
Reply: label 1

Task item: Confirm if background-corrected fluorescence reported for the sequence TTTTTTGCGCATCATCATCATTTTTTTTTTTTTTTATGGG [GGGTA] is 0.5 or above.
Reply: label 1

Task item: Confirm if background-corrected fluorescence reported for the sequence TTTTTTGCTCATGAGCATCATTTTTTTTTTTTTTTAGCTG [GTCGA] is 0.5 or above.
Reply: label 1

Task item: Confirm if background-corrected fluorescence reported for the sequence TTTTTTCATCATCATGCTGCTTTTTTTTTTTTTTTGGGAA [AAGGG] is 0.5 or above.
Reply: label 1

Task item: Confirm if background-corrected fluorescence reported for the sequence TTTTTTCATGATGCTGCGCATTTTTTTTTTTTTTTGCAAT [TAACG] is 0.5 or above.
Reply: label 1

Task item: Confirm if background-corrected fluorescence reported for the sequence TTTTTTGCTCATGCGCATGATTTTTTTTTTTTTTTAGATC [CTAGA] is 0.5 or above.
Reply: label 0

Task item: Confirm if background-corrected fluorescence reported for the sequence TTTTTGCATGAGCATCAGCATTTTTTTTTTTTTTTTCTGT [TGTCT] is 0.5 or above.
Reply: label 1

Task item: Confirm if background-corrected fluorescence reported for the sequence TTTTTGCATGATGAGCAGCATTTTTTTTTTTTTTTTCCTT is 0.5 or above.
Reply: label 0

Task item: Confirm if background-corrected fluorescence reported for the sequence TTTTTGCATGAGCATGAGCATTTTTTTTTTTTTTTTCTCT is 0.5 or above.
Reply: label 0

---

test-description: background-corrected fluorescence of 3'-dye-labeled ssDNA relative to brightest sequence (3'-GCGCG) (fraction); higher = brighter dye fluorescence (less quenching)
run-conditions: dye: Cy5 (3' terminal)
endpoint: background-corrected fluorescence
Hey, just send me the number, nothing else.

TTTTTGCATGCGCAGCAGCATTTTTTTTTTTTTTTTATTT :: 0.381

Task item: Which background-corrected fluorescence reading was recorded for the sequence TTTTTTGCTCAGCATGCTGATTTTTTTTTTTTTTTAGTAC [CATGA] ?
Reply: 0.371

Task item: Which background-corrected fluorescence reading was recorded for the sequence TTTTTTGATGCGCATGCTGCTTTTTTTTTTTTTTTCATAA [AATAC] ?
Reply: 0.428

Task item: Which background-corrected fluorescence reading was recorded for the sequence TTTTTGCAGCATGATGCGCATTTTTTTTTTTTTTTTTCAT [TACTT] ?
Reply: 0.378
